This collection of values is drawn from PubChem BioAssay.

Below is a list of entries, each paired with its recorded composite z-score value.
Test: small-molecule microarray binders of probe aCHRDL2, primary screen, biochemical, biotinylated probe, 635/667 nm fluorescence (AID 1100)
Details: higher = more signal
Answer with the value's number alone.

# annotated cases, reported composite z-score shown
molecule	readout.number
COc1ccc(C#Cc2ccc3c(c2)[C@]2(C(=O)N3)[C@H](c3ccc(O)cc3)N3[C@H](c4ccccc4)[C@H](c4ccccc4)OC(=O)[C@H]3[C@@H]2C(=O)N2CCCCCCC2)cc1	1.52
CCCCC=C[C@@H](NC(=O)c1ccco1)c1ccccc1	0.557
COCCOC(=O)N1C(=O)[C@@]2(c3cc(C#CCNC(N)=O)ccc31)[C@H](C(=O)N1CCc3cc(OC)c(OC)cc3C1)[C@H]1C(=O)O[C@H](c3ccccc3)[C@H](c3ccccc3)N1[C@@H]2c1ccc(OCCO)cc1	-0.053
COCCOC(=O)N1C(=O)[C@@]2(c3cc(C#CCC(C(=O)OC)C(=O)OC)ccc31)[C@H](C(=O)N1CCCCCCC1)[C@H]1C(=O)O[C@H](c3ccccc3)[C@H](c3ccccc3)N1[C@@H]2c1ccc(OCCO)cc1	1.65
CCCCC=C[C@@H](NC(=O)c1cccs1)c1ccccc1	0.359
CN(C)CCCNC(=O)[C@@]1(Cc2ccccc2I)c2ccccc2C(=O)N(Cc2ccccc2C(F)(F)F)[C@H]1c1ccc(CO)cc1	0.86
O=C1OCCC/C=C\[C@H]2OC34C=CCN(Cn5nnc6ccccc65)C(=O)[C@H]3N(CCCCCO)C(=O)[C@@H]4C12 (stereo not given in full)	0.584
O=C1OCC=C[C@H]2OC34C=CCN(c5ccc6ccccc6c5)C(=O)[C@H]3N(CCCO)C(=O)[C@@H]4[C@@H]12 (stereo not given in full)	0.899
COC(=O)c1ccc(OC)c(/C=C\CC(OC(C)=O)c2ccccc2)c1 (stereo not given)	0.0946
COC(=O)[C@@]1(Cc2ccc(F)cc2)[C@H]2c3cc(C(=O)N4CCCC4)n(Cc4cccc5ccccc45)c3C[C@H]2CN1C(=O)c1ccccc1	0.854

Entry under test: Cc1ccc(F)cc1S(=O)(=O)N[C@@H]1CCN(Cc2ccc(-c3ccccc3)cc2)C1 . Its composite z-score was -0.318

Entry under test: COC(=O)[C@@]1(Cc2ccccc2)[C@H]2c3cc(C(=O)N(C)C)n(Cc4cc(C)n(C)n4)c3C[C@H]2CN1C(=O)c1ccccc1 . Its composite z-score was 0.947

Entry under test: COC(=O)C[C@@H]1C[C@H](C)[C@]2(O1)C(=O)N(Cc1ccccc1)c1ccc(NC(C)=O)cc12 . Its composite z-score was -0.448

Entry under test: COC(=O)[C@@]1(Cc2ccc(OC)cc2)[C@H]2c3cc(C(=O)N4CCCC4)n(Cc4cc(F)cc5c4OCOC5)c3C[C@H]2CN1C(=O)c1ccccc1 . Its composite z-score was 0.984

Entry under test: O=C/C=C/c1ccc(Cl)cc1 . Its composite z-score was 0.0073

----------
Assay: splicing luciferase reporter signal modulators, primary screen, spliceosome inhibition project, cell-based, HEK293, splice +/- reporter (AID 1101);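 note: HEK293 cells carrying a splicing-competent luciferase reporter gene; test concentration not given here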
Details: luminescence, 24 h, higher = more signal, called active from +8 up or from −8 down
Consider the reported z-score of an entry and match it to a band in label 0 (below -1), label 1 (-1 to below -0.3), label 2 (-0.3 or more)

Use the examples below as a reference point.
compound	answer.label
[N-]=[N+]=NCc1ccccc1C[C@]1(C(=O)O)N=C(c2ccc(OCCCO)cc2)O[C@H]1c1ccccc1CN=[N+]=[N-]	label 0
CC(C)OC(=O)CC(=O)CC(O)c1ccc(C#N)cc1 (stereo not drawn)	label 0
CCOC(=O)C1=CC[C@@H](c2ccccc2Cl)N(S(=O)(=O)c2ccc(C)cc2)C1	label 0
COCCOC(=O)N1C(=O)[C@@]2(c3ccccc31)[C@H](C(=O)Nc1nc3ccccc3s1)[C@H]1C(=O)O[C@H](c3ccccc3)[C@H](c3ccccc3)N1[C@@H]2c1ccc(OCCO)cc1	label 2
CC(C)(C)N1CC=CC23O[C@@H]4/C=C\CCCOC(=O)C4[C@H]2C(=O)N(CCO)[C@@H]3C1=O (stereo partly drawn)	label 1
O=C1OCCC=C[C@H]2OC34C=CCN(Cc5ccccc5)C(=O)[C@H]3N(CCCCCCO)C(=O)[C@@H]4C12 (stereo partly drawn)	label 2
COC(=O)[C@@]1(Cc2ccc(F)cc2)[C@H]2c3cc(C(=O)N4CCCC4)n(Cc4cccc5ccccc45)c3C[C@H]2CN1C(=O)c1ccccc1	label 0
C=CCC(OC(C)=O)[C@@H]1[C@@H](N(Cc2ccc(-c3cccc(C(F)(F)F)c3)o2)C(=O)c2ccc(C)cc2)c2cc(OCCCO)ccc2N1C(=O)c1ccc(-c2ccccc2)cc1 (stereo partly drawn)	label 1
CCOC(=O)C[C@H]1[C@H](OC(=O)c2ccc(-c3ccccc3)cc2)[C@@H](NC(=O)c2ccc3ccccc3c2)c2cc(OCCCO)ccc2N1C(=O)Cc1ccc(OC)cc1	label 1
COC(=O)c1ccc(OC)c(/C=C\CC(OC(C)=O)c2ccccc2)c1 (stereo not drawn)	label 1

Exam item: Which category does the recorded z-score put C=CCN1C(=O)[C@]2(O[C@H](CCO)[C@@H]([Si](C)(C)c3ccc(OC)cc3)[C@@H]2C)c2cc(NC(=O)[C@H](C)O)ccc21 in?
Marked response: label 0

Exam item: Which category does the recorded z-score put Cc1ccc([C@H]2C(C(=O)O)=C[C@@H](C)N2S(=O)(=O)c2ccc(C)cc2)cc1 in?
Marked response: label 2

Exam item: Which category does the recorded z-score put C=C(C(=O)CC[C@H](OC(C)=O)c1ccc(OCCO)cc1)C(C)C in?
Marked response: label 0

Exam item: Which category does the recorded z-score put CC(=O)Nc1cc(Br)ccc1C(=O)O in?
Marked response: label 1

Exam item: Which category does the recorded z-score put C=CCNC(=O)[C@H]1[C@@H]2C(=O)O[C@@H](c3ccccc3)[C@@H](c3ccccc3)N2[C@@H](c2ccc(O)cc2)[C@]12C(=O)N(C(=O)OCCOC)c1ccc(C#CCCO)cc12 in?
Marked response: label 2

Exam item: Which category does the recorded z-score put C=CC[C@@H](OC(=O)Nc1ccc(OC)cc1)c1ccc(O)c2ccccc12 in?
Marked response: label 1

Exam item: Which category does the recorded z-score put COc1ccc([Si](C)(C)[C@@H]2[C@@H](CC(=O)N(CCO)Cc3ccccc3)O[C@]3(C(=O)N(C)c4ccccc43)[C@H]2C)cc1 in?
Marked response: label 2

----------
Test: small-molecule binders of probe aNOTCH3, primary screen, biochemical, small-molecule microarray, 635/667 nm fluorescence (AID 1120);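 note: probe is a biotin-tagged antibody raised against NOTCH3 rather than NOTCH3 protein; score merges spot fluorescence near 667 nm with spot signal to noise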
Settings: higher = more signal
recorded.metric: composite z-score
Answer with the value's number alone.

# annotated cases, reported composite z-score shown
molecule	composite z-score
CC(=O)NCCCC[C@@H]1NC(=O)[C@H]2C[C@@H](C(=O)NCCCCCC[N+](C)(C)C)[C@@H](c3cccc(OCCO)c3)N2C1=O	0.15
O=C(CS)NCCCCCCNC(=O)[C@H]1C[C@H]2C(=O)NCC(=O)N2[C@H]1c1ccc(O)cc1	-0.25
O=C1OCCC/C=C\[C@H]2OC34C=CCN(Cn5nnc6ccccc65)C(=O)[C@H]3N(CCCCCO)C(=O)[C@@H]4C12 (stereo partly specified)	-0.267

Entry under test: CC1=C2[C@@H](CCc3ccccc3)OB(O)C[C@@H]2n2c(=O)n(-c3ccccc3)c(=O)n2C1 . Its composite z-score was 0.199

Entry under test: CC(c1ccccc1)C(O)C1C=CC2C(=O)NC(=O)C2N1Nc1ccccn1 (stereo unspecified) . Its composite z-score was 0.0876

Entry under test: COc1ccc(C#Cc2ccc3c(c2)[C@]2(C(=O)N3)[C@H](c3ccc(O)cc3)N3[C@H](c4ccccc4)[C@H](c4ccccc4)OC(=O)[C@H]3[C@@H]2C(=O)NC[C@H](O)c2ccccc2)cc1 . Its composite z-score was 0.0319

----------
Assay: basal 3T3-L1 adipocyte mitochondrial potential changes, profiling panel, cell-based, JC-1 fluorescence, 3T3-L1 adipocytes, 24 h, 100 nL compound (AID 1168); note: test concentration not given here
Conditions: JC-1 mitochondrial fluorescence, higher = more signal, called active from +8 up or from −8 down
recorded.metric: z-score
Answer with the value's number alone.

Entry under test: O=C1C=CC(=O)[C@@H]2CC(COc3ccccc3)=C3[C@@H](CCc4ccccc4)OB(O)C[C@@H]3[C@H]12 . Its z-score was -1.83

Entry under test: O=C1C2C=CC(C(O)c3cccs3)N(Nc3ccccc3F)C2C(=O)N1c1ccccc1 (stereo not drawn) . Its z-score was 0.321

Entry under test: CN(C)CCCCCCNC(=O)[C@H]1C[C@H]2C(=O)N[C@@H](CCCCN)C(=O)N2[C@H]1c1ccc(O)cc1 . Its z-score was -0.935

Entry under test: CCC[C@@H]1C=C(C(=O)O)[C@H](c2ccc(C)cc2)N1S(=O)(=O)c1ccc(C)cc1 . Its z-score was -0.119

Entry under test: CCOC(=O)[C@H]1C/C=C/C[C@H](C(=O)OCC)C(=O)O[C@H]2[C@@H](OC)O[C@H](CO)[C@@H](OC(=O)Nc3ccc4c(c3)OCO4)[C@@H]2OC1=O . Its z-score was 1.56

Entry under test: O=C1C[C@]2(c3ccc([N+](=O)[O-])cc3)C(=O)N(CC(F)(F)F)c3cc(CO)ccc3[C@H]2N1CC12CC3CC(CC(C3)C1)C2 . Its z-score was -1.2

Entry under test: NC(=O)NCC#Cc1ccc2c(c1)[C@]1(C(=O)N2)[C@H](C(=O)N2CCCCCCC2)[C@H]2C(=O)O[C@H](c3ccccc3)[C@H](c3ccccc3)N2[C@@H]1c1ccc(OCCO)cc1 . Its z-score was -2.9

Entry under test: C=C(COC)/C(=C/C[C@H](OC(=O)c1ccncc1)c1cccc(OCCO)c1)c1cc(C(=O)OC)ccc1OC . Its z-score was 0.246

Entry under test: CCCCCCc1nc(CCCc2cc3c(c(CCCCCC)n2)[Si](C(C)C)(C(C)C)OC3)cc2c1[Si](C(C)C)(C(C)C)OC2 . Its z-score was 0.705

Entry under test: COC(=O)[C@@]1(Cc2ccccc2N=[N+]=[N-])COC(c2ccc(OCCCO)cc2)=N1 . Its z-score was -0.605

Entry under test: CC(C)CNC(=O)[C@@]1(c2ccc([N+](=O)[O-])cc2)CC(=O)N(CC23CC4CC(CC(C4)C2)C3)[C@@H]1c1ccc(CO)cc1 . Its z-score was 0.226

Entry under test: Cc1ccc(S[C@]2(C(=O)NCC(C)C)CC(=O)N(Cc3ccccc3)[C@@H]2c2ccc(CO)cc2I)cc1 . Its z-score was -1.23

Entry under test: COc1ccc(CCNC(=O)[C@@H]2c3ccccc3C(=O)N(Cc3ccc(OC(F)(F)F)cc3)[C@H]2c2ccc(CO)cc2)cc1 . Its z-score was -0.0731

Entry under test: Cc1ccc(S[C@]2(C(=O)O)CC(=O)N(C3Cc4ccccc4C3)[C@@H]2c2ccc(CO)cc2I)cc1 . Its z-score was -0.939

Entry under test: [N-]=[N+]=NCc1ccccc1C[C@@]1(C(=O)N2CCOCC2)N=C(c2ccc(OCCCO)cc2)O[C@@H]1c1ccccc1CN=[N+]=[N-] . Its z-score was 0.612

Entry under test: COC(=O)c1c(CC[C@@H](CO)NC(=O)N[C@@H](Cc2ccccc2)Cn2cc(C3(O)CCCCC3)nn2)oc(C(C)=O)c1C(=O)OC . Its z-score was 0.349

Entry under test: O=C1C2C=CC(C(O)c3ccc(-c4ccccc4)s3)N(n3cnnc3)C2C(=O)N1Cc1ccccc1 (stereo not drawn) . Its z-score was -0.878

Entry under test: CC(C)NC(=O)[C@@H]1c2ccccc2C(=O)N(Cc2ccccc2Cl)[C@H]1c1ccc(CO)cc1 . Its z-score was -0.466
